biological target: native mouse MET on living mouse cells (mouse, UniProt P16056 25-1379); assay: cell-based or functional assay
In this section we review reported cell scattering score, MLP29, 0.037 nM values for a set of binders.
Quick note: give the figure in score 0-4, leave out the unit.

>  <BINDER>
chimeric llama-human IgG1 mAb 71A3 (antibody, V domains shown) VH: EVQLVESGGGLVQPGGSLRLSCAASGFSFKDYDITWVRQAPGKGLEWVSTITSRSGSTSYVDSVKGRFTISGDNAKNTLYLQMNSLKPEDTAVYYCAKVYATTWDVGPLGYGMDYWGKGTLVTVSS VL: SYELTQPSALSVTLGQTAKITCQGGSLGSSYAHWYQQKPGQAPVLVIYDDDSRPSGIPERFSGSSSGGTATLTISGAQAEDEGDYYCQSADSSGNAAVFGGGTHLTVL

>  <UNIT_OF_MEASURE>
score 0-4

>  <cell scattering score, MLP29, 0.037 nM>
3

$$$$

Here is the next item to consider.
Input chimeric llama-human IgG1 mAb 74C8 (antibody, V domains shown) VH: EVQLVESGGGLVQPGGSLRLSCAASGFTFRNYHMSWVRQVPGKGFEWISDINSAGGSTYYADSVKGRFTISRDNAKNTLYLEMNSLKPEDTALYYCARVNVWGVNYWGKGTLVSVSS VL: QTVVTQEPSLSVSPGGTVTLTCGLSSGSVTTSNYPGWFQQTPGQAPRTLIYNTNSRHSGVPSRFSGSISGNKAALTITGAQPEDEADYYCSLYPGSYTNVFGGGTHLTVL . Output cell scattering score, MLP29, 0.037 nM: 1

# credit: patent US20210024639A1
